These entries and their values trace back to paper PMC8464079.

Target: T1, MUT-4C (Caenorhabditis elegans, UniProt Q09487 172-535, N318C;H319Y;Q322R)
T1 sequence: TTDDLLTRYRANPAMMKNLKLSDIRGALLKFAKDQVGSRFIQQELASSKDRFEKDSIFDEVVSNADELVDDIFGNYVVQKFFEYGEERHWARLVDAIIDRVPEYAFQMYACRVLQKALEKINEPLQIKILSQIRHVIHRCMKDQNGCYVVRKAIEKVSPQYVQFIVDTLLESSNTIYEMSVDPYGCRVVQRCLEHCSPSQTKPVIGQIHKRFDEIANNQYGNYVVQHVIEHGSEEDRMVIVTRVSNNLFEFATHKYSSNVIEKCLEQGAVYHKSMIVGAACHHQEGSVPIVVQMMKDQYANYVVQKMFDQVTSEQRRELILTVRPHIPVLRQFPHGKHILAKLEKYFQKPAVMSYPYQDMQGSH
Experiment: fluorescence polarization
pKd: −log10 of the molar value.
parameter.measured: pKd

binder: UGUAGAUA (ssRNA) [PBE-5G FAM]
parameter.measured: pKd
experimental.value: 7.95
--
binder: UGUAUAUA (ssRNA) [PBE-5U FAM]
parameter.measured: pKd
experimental.value: 8.43
--
binder: UGUAAAUA (ssRNA) [PBE-5A FAM]
parameter.measured: pKd
experimental.value: 7.79
--
binder: GGUACAUA (ssRNA) [PBE-1G FAM]
parameter.measured: pKd
experimental.value: 6.68
--
binder: UGUACAUA (ssRNA) [PBE-5C FAM]
parameter.measured: pKd
experimental.value: 8.54
